biological target: human cloned CHRM2 receptor (Homo sapiens); construct: expressed in transfected cells; host or cells: CHO-K1 (M2_CHO); assay: CHRM2 Ca++ Flux Assay (M2_CHO cells, agonist mode); assay type: cell-based; details: Percent Activity (PA) measured to EC100 of Carbachol; M2 CHO cells; read-out: M2 FDSS PA %
measure-name: Emax (%)

Fc1ccc(OC[C@H]2COCCO2)c(C2CCN([C@@H]3COC4(C3)CN(c3nnco3)C4)CC2)c1 29
Fc1ccc(OCC2CC3(COC3)C2)c(C2CCN([C@@H]3COC4(C3)CN(c3nnco3)C4)CC2)c1 29
CCC1(COc2ccc(F)cc2C2CCN([C@@H]3COC4(C3)CN(c3nnco3)C4)CC2)COC1 36
COCCOc1ccc(F)cc1C1CCN([C@@H]2COC3(C2)CN(c2ncco2)C3)CC1 0
Fc1ccc(OC[C@@H]2CCOC2)c(C2CCN([C@@H]3COC4(C3)CN(c3nncs3)C4)CC2)c1 43

(1) Fc1ccc(OC[C@H]2COCCO2)c(C2CCN([C@@H]3COC4(C3)CN(c3nncs3)C4)CC2)c1
(2) COc1ccccc1C1CCN([C@@H]2COC3(C2)CN(c2nnco2)C3)CC1
(3) COc1ccccc1C1CCN([C@@H]2COC3(C2)CN(c2ncco2)C3)CC1
Arrange the 3 molecules by rising Emax, starting with the smallest. Please list the labels in the order you were asked to rank them.
3, 2, 1
(3: 0%, 2: 16%, 1: 32%)

###

target: human cloned CHRM2 receptor (Homo sapiens, UniProt P08172); construct: expressed in transfected cells; host or cells: CHO-K1 (M2_CHO); test: CHRM2 Ca++ Flux Assay (M2_CHO cells, agonist mode); type: cell-based; conditions: Percent Activity (PA) measured to EC100 of Carbachol; M2 CHO cells
Sequence (P08172 whole entry): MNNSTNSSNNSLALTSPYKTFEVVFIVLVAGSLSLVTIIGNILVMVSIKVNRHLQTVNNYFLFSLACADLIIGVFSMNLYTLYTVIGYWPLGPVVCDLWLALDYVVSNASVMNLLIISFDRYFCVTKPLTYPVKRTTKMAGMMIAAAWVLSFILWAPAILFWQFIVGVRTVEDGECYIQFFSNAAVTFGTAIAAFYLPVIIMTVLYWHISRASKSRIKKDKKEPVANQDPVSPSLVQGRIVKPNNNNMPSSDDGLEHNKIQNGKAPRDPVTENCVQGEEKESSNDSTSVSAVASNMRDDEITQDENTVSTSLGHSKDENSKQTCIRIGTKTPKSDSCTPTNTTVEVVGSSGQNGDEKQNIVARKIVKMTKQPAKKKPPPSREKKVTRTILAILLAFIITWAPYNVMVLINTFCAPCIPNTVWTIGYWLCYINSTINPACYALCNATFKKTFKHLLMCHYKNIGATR
measure-name: M2 FDSS PA % (%)

(A) CC(C)(O)[C@H]1C[C@@H](Oc2ccc(F)cc2C2CCN([C@@H]3COC4(C3)CN(c3ncco3)C4)CC2)C1 (single isomer, unassigned) [Example 4U]
(B) OC[C@H]1C[C@H](Oc2ccc(F)cc2C2CCN([C@@H]3COC4(C3)CN(c3nnco3)C4)CC2)C1 (single isomer, unassigned) [Example 2II]
Two entries are listed, A and B . Which one carries the higher M2 FDSS PA %? Answer format: the label of the selected item.
A

###

Target: Cloned human M1 receptor (CHRM1) (Homo sapiens)
Construct: expressed in transfected cells; host or cells: HEK293
Sequence (P11229 1-460): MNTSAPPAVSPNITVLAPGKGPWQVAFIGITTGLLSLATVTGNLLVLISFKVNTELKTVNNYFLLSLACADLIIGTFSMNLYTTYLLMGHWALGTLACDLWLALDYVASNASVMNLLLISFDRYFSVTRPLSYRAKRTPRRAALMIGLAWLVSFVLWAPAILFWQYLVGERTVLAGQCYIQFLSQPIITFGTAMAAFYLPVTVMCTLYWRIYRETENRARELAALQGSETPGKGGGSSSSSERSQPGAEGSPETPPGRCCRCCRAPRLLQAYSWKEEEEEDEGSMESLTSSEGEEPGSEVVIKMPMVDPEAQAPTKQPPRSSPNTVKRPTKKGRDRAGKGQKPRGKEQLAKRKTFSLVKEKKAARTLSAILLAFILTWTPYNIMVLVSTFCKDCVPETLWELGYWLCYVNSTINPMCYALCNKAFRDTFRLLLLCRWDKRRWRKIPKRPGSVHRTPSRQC
Experiment: CHRM1 Ca++ Flux Assay (HEK293 M1 cells, agonist mode)
Assay type: cell-based
Details: Percent Activity (PA), read-out: M1 FDSS PA %
measure-name: Emax (%)

For orientation, consider the following solved cases.
compound	unit-descriptor	experimental-value
Fc1ccc(OCC2COC2)c(C2CCN([C@@H]3COC4(C3)CN(c3nnco3)C4)CC2)c1 [Example 2H]	%	101
Fc1cc(F)c(O[C@@H]2CCOC2)c(C2CCN([C@@H]3COC4(C3)CN(c3nnco3)C4)CC2)c1 [Example 2CC]	%	85
c1ccc(C2CCN([C@@H]3COC4(C3)CN(c3ncco3)C4)CC2)c(-c2cncnc2)c1 [Example 4R]	%	95
Fc1ccc(C2CCN([C@@H]3COC4(C3)CN(c3ncco3)C4)CC2)c(OC2COC2)c1 [Example 4S]	%	89
COc1ccc(Cl)cc1C1CCN([C@@H]2COC3(C2)CN(c2ncns2)C3)CC1 [Example 5A]	%	70
Fc1cc(OC2COC2)c(C2CCN([C@@H]3COC4(C3)CN(c3nnco3)C4)CC2)cc1F [Example 2FF]	%	70

(I) COC(C)(C)CCOc1ccc(F)cc1C1CCN([C@@H]2COC3(C2)CN(c2nncs2)C3)CC1 [Example 5N]
(II) Fc1ccc(OCC2(F)COC2)c(C2CCN([C@@H]3COC4(C3)CN(c3nnco3)C4)CC2)c1 [Example 2J]
Which value of Emax is smaller, the one for I or the one for II ? Answer format: the label of the selected item.
I

###

biological target: human cloned CHRM5 receptor (Homo sapiens); test: CHRM5 Ca++ Flux Assay (M5_CHO cells, agonist mode); details: agonist mode, geometric mean if tested more than once, read-out: M5 FDSS EC50
Sequence (P08912 whole entry): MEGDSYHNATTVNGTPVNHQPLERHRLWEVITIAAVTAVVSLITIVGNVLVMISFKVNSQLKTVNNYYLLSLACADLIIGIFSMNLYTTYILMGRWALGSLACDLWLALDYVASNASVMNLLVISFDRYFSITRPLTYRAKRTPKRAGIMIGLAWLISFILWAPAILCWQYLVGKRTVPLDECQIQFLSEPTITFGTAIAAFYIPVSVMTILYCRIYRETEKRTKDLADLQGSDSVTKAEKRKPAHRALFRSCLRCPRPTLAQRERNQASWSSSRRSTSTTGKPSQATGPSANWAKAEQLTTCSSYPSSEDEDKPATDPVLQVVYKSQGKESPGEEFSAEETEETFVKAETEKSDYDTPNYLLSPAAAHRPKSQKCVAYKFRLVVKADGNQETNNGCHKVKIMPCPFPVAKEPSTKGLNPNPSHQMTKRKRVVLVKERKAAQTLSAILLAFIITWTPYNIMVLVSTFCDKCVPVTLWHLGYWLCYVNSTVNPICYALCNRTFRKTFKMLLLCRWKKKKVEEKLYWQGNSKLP
measure-name: EC50

compound	measure-name	experimental-value
Fc1ccc(OC[C@H]2CCO2)c(C2CCN([C@@H]3COC4(C3)CN(c3nncs3)C4)CC2)c1.O=C(O)C(F)(F)F (single isomer, unassigned) [Example 2D]	EC50	> 25 µM
Fc1cc(O[C@@H]2CCOC2)c(C2CCN([C@@H]3COC4(C3)CN(c3nncs3)C4)CC2)cc1F	EC50	> 25 µM

// switching to the query compound
Name the recorded EC50 for Fc1ccc(C2CCOCC2)c(C2CCN([C@@H]3COC4(C3)CN(c3nnco3)C4)CC2)c1 .
> 25 µM

###

target: UniProt P08173; experiment: CHRM4 Ca++ Flux Assay (M4_CHO cells, agonist mode); settings: geometric mean if tested more than once, read-out: M4 FDSS EC50
Sequence (P08173 whole entry): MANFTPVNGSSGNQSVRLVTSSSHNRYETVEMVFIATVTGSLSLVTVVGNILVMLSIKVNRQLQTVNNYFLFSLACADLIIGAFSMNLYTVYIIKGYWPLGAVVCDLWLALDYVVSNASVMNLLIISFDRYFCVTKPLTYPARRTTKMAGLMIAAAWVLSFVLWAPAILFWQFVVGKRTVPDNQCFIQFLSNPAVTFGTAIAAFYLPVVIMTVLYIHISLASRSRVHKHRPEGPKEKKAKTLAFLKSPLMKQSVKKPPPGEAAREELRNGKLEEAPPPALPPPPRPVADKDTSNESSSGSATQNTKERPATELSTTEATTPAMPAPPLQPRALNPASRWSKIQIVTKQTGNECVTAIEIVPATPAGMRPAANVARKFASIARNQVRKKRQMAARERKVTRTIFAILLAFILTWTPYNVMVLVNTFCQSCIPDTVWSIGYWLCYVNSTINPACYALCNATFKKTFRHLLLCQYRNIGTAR
pEC50: −log10 of the molar value.
measure-name: pEC50

compound	pEC50
Fc1ccc(O[C@H]2CCOC2)c(C2CCN([C@@H]3COC4(C3)CN(c3nncs3)C4)CC2)c1 [Example 5O]	7.15
Fc1ccc(OC[C@H]2CCOC2)c(C2CCN([C@@H]3COC4(C3)CN(c3nnco3)C4)CC2)c1 [Example 1I]	7.46
Fc1ccc(OCC2COC2)c(C2CCN([C@@H]3COC4(C3)CN(c3nnco3)C4)CC2)c1 [Example 2H]	8.22

(1) Fc1ccc(OC2CC3(COC3)C2)c(C2CCN([C@@H]3COC4(C3)CN(c3nncs3)C4)CC2)c1 [Example 5W]
(2) Fc1ccc(OCC2CC3(COC3)C2)c(C2CCN([C@@H]3COC4(C3)CN(c3nnco3)C4)CC2)c1 [Example 2S]
Which value of pEC50 is smaller, the one for 1 or the one for 2 ? Answer format: the label of the selected item.
2
(2: 6.62, 1: 6.98)

(A) Fc1cc(OC2COC2)c(C2CCN([C@@H]3COC4(C3)CN(c3nnco3)C4)CC2)cc1F [Example 2FF]
(B) Fc1cc(F)c(OCC2COC2)c(C2CCN([C@@H]3COC4(C3)CN(c3nnco3)C4)CC2)c1 [Example 2DD]
(C) Fc1cc(OCC2COC2)c(C2CCN([C@@H]3COC4(C3)CN(c3ncco3)C4)CC2)cc1F [Example 4O]
Arrange the 3 compounds by rising pEC50, starting with the smallest. Please list the labels in the order you were asked to rank them.
B, A, C
(B: 6.81, A: 7.59, C: 8.15)

(I) CCc1nnc(COc2ccc(F)cc2C2CCN([C@@H]3COC4(C3)CN(c3nnco3)C4)CC2)s1 [Example 2T]
(II) Fc1ccc(OC[C@H]2COCCO2)c(C2CCN([C@@H]3COC4(C3)CN(c3nnco3)C4)CC2)c1 [Example 1C]
(III) Fc1ccc(OC2CCOCC2)c(C2CCN([C@@H]3COC4(C3)CN(c3ncon3)C4)CC2)c1 [Example 6A]
Arrange the 3 compounds by rising pEC50, starting with the smallest. Please list the labels in the order you were asked to rank them.
II, III, I

###

molecular target: human cloned CHRM2 receptor (Homo sapiens, UniProt P08172); construct: expressed in transfected cells; host or cells: CHO-K1 (M2_CHO); test: CHRM2 Ca++ Flux Assay (M2_CHO cells, agonist mode); format: cell-based; conditions: Percent Activity (PA) measured to EC100 of Carbachol; M2 CHO cells; read-out: M2 FDSS PA %
Where a name gives a salt, the structure may show the parent alone.
measure-name: Emax (%)

For orientation, consider the following solved cases.
molecule	test-system	experimental-value
Fc1ccc(OCC2(F)COC2)c(C2CCN([C@@H]3COC4(C3)CN(c3nnco3)C4)CC2)c1	human cloned CHRM2 receptor (Homo sapiens, UniProt P08172)	62
COC(C)(C)CCOc1ccc(F)cc1C1CCN([C@@H]2COC3(C2)CN(c2nnco2)C3)CC1	human cloned CHRM2 receptor (Homo sapiens, UniProt P08172)	0
Fc1ccc(O[C@@H]2CCOC2)c(C2CCN([C@@H]3COC4(C3)CN(c3ncco3)C4)CC2)c1	human cloned CHRM2 receptor (Homo sapiens, UniProt P08172)	17
CCc1nnc(COc2ccc(F)cc2C2CCN([C@@H]3COC4(C3)CN(c3nnco3)C4)CC2)s1	human cloned CHRM2 receptor (Homo sapiens, UniProt P08172)	44
COc1ccc(Cl)cc1C1CCN([C@@H]2COC3(C2)CN(c2ncns2)C3)CC1	human cloned CHRM2 receptor (Homo sapiens, UniProt P08172)	26
c1ccc(C2CCN([C@@H]3COC4(C3)CN(c3ncco3)C4)CC2)c(-c2cncnc2)c1	human cloned CHRM2 receptor (Homo sapiens, UniProt P08172)	12
c1ccc(C2CCN([C@@H]3COC4(C3)CN(c3nncs3)C4)CC2)c(OC2COC2)c1 [Example 5Q, formate salt]	human cloned CHRM2 receptor (Homo sapiens, UniProt P08172)	0
Fc1cc(OC2COC2)c(C2CCN([C@@H]3COC4(C3)CN(c3ncco3)C4)CC2)cc1F	human cloned CHRM2 receptor (Homo sapiens, UniProt P08172)	13

(P) Fc1ccc(OC[C@@H]2CCOC2)c(C2CCN([C@@H]3COC4(C3)CN(c3nnco3)C4)CC2)c1
(Q) c1ccc(C2CCN([C@@H]3COC4(C3)CN(c3nnco3)C4)CC2)c(CC2CCOCC2)c1
Two entries are listed, P and Q . Which one carries the higher Emax? Answer format: the label of the selected item.
P
(P: 39%, Q: 16%)

(A) Fc1ccc(C2CCN([C@@H]3COC4(C3)CN(c3ncco3)C4)CC2)c(OC2COC2)c1
(B) Fc1ccc(OCC2COC2)c(C2CCN([C@@H]3COC4(C3)CN(c3nncs3)C4)CC2)c1
Two entries are listed, A and B . Which one carries the higher Emax? Answer format: the label of the selected item.
B
(B: 46%, A: 31%)

(P) Fc1ccc(OC2CCOCC2)c(C2CCN([C@@H]3COC4(C3)CN(c3ncco3)C4)CC2)c1
(Q) CC1(COc2ccc(F)cc2C2CCN([C@@H]3COC4(C3)CN(c3nncs3)C4)CC2)COC1
(R) COc1cc(F)ccc1C1CCN([C@@H]2COC3(C2)CN(c2nnco2)C3)CC1
Arrange the 3 molecules by rising Emax, starting with the smallest. Please list the labels in the order you were asked to rank them.
P, R, Q
(P: 0%, R: 13%, Q: 35%)

Measured values drawn from patent US11485742B2 for this set.
